// data source = PubChem BioAssay (EPA / NIEHS)

system name: Estrogen-related receptor gamma (Homo sapiens) (UniProt P62508)
Sequence (P62508 whole entry, looked up): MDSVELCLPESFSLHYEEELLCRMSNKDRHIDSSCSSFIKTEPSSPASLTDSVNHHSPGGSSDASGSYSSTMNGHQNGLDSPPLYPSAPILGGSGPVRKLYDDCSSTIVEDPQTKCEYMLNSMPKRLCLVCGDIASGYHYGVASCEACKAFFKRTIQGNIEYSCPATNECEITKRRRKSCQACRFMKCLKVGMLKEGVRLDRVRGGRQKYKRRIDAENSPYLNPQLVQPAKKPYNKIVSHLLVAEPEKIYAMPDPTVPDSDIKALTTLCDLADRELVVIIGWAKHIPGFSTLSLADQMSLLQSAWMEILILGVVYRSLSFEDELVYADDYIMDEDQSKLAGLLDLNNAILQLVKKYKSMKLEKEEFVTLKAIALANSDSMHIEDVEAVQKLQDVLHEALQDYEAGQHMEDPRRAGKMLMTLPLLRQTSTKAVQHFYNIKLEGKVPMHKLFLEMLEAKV
protocol details: ATG_ERRg_TRANS: Attagene TRANS-FACTORIAL HepG2 Assay for human Estrogen-Related Receptor gamma (ERRg) (AID 2282977);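 note: hits increase reporter signal over DMSO so potencies reflect activators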
condition parameters: HepG2 Attagene TRANS reporter, ERRg transactivation
Inconclusive results are not listed. The source made the active and inactive calls. Rule for the calls: active = hit-call score of the fitted dose curve at least 0.9, where 1 is the maximum; inconclusive = response in the unintended direction; inactive = score below 0.9.
Choose one outcome from this list and give only that: active, inactive

Worked cases, answers included:
compound	discrete label
C#C[C@]1(O)CC[C@H]2[C@@H]3CCc4cc(OC)ccc4[C@H]3CC[C@@]21C	inactive
Nc1ccc(S(=O)(=O)Nc2nccs2)cc1	inactive
C=CC(F)(F)C(F)(F)C(F)(F)C(F)(F)C(F)(F)C(F)(F)C(F)(F)C(F)(F)F	inactive
O=C(O)C(F)(F)C(F)(F)C(F)F	inactive
FC(F)(F)C(F)(F)C(F)(F)C(F)(F)C(F)(F)C(F)(F)CCS	inactive
CCCCCCCCCCCCCCCC[N+](C)(C)Cc1ccccc1	active
CCN(Cc1cccc(S(=O)(=O)O)c1)c1ccc(C(=C2C=CC(=[N+](CC)Cc3cccc(S(=O)(=O)O)c3)C=C2)c2ccc(O)cc2S(=O)(=O)[O-])cc1	inactive
O=S(=O)(OCCOC(F)(F)F)C(F)(F)F	inactive

Exercise: Which outcome was entered for the compound CCCCC(CC)COP(=O)(O)OCC(CC)CCCC (stereo unspecified) in this test?
Key: inactive

Exercise: Which outcome was entered for the compound "FC(F)(F)C(F)(F)CNCC(F)(F)C(F)(F)F" in this test?
Key: inactive

Exercise: Which outcome was entered for the compound "O=C(O)C(F)(F)C(F)(F)C(F)(F)C(F)(F)C(F)(F)C(F)(F)C(F)(F)C(F)(F)C(F)(F)C(F)F" in this test?
Key: inactive

====

system name: Estrogen receptor (Homo sapiens)
protocol details: OT_ERa_GFPERaERE_0480: Odyssey Thera (OT) 8-hour HeLa Transcription Induction Assay for Estrogen Receptor (AID 2283381)
Description: OT_ERa_GFPERaERE_0480 is a cell-based, single-readout assay that uses HeLa, a human cervix cell line, with measurements taken at 8 hours after chemical dosing in a 384-well plate.OT_ERa_GFPERaERE_0480 is one of one assay component(s) measured or calculated from the OT_ERa_GFPERaERE_0480 assay. […] This assay endpoint, OT_ERa_EREGFP_0480, was analyzed in the positive analysis fitting direction relative to DMSO as the negative control and baseline of activity. […]
Calls of active or inactive are those of the source. The calls were made as follows: active = hit-call score of the fitted dose curve at least 0.9, where 1 is the maximum; inactive = score below 0.9.
Choose one outcome from this list and give only that: true (1) for active, false (0) for inactive

Worked cases, answers included:
compound	discrete label
CCCCCCOC(=O)c1ccccc1	false (0)
C(=C(c1ccccc1)c1ccccc1)c1ccccc1	true (1)
COC(=O)C1CCC(C(=O)OC)CC1 (stereo not given)	false (0)
CCCCC(CC)COP(=O)(O)OCC(CC)CCCC (stereo not given)	false (0)
CC/C=C\CCOC(C)=O	false (0)
CC(C)OC(=O)c1ccccc1C(=O)OC(C)C	false (0)
O=S(=O)(O)c1ccc2ccccc2c1	false (0)
C1COCCN1	false (0)

Exercise: Which outcome was entered for the compound "CCCCCCOC(=O)c1ccccc1O" in this test?
Key: false (0)

Exercise: Which outcome was entered for the compound "O=C(OCCOCCOCCOC(=O)c1ccccc1)c1ccccc1" in this test?
Key: false (0)

Exercise: Which outcome was entered for the compound "CCN(Cc1cccc(S(=O)(=O)O)c1)c1ccc(C(=C2C=CC(=[N+](CC)Cc3cccc(S(=O)(=O)O)c3)C=C2)c2ccc(O)cc2S(=O)(=O)[O-])cc1" in this test?
Key: false (0)

Exercise: Which outcome was entered for the compound "Cc1ccc(S(=O)(=O)NCl)cc1" in this test?
Key: false (0)

Exercise: Which outcome was entered for the compound "CN(C)Cc1ccccc1O" in this test?
Key: false (0)

Exercise: Which outcome was entered for the compound "CNC(=S)NC" in this test?
Key: false (0)

Exercise: Which outcome was entered for the compound CCCCCCC(C)OC(=O)CCCCC(=O)OC(C)CCCCCC (stereo not given) in this test?
Key: false (0)
